TEST_TARGET: recombinant GSK3β kinase (Homo sapiens (Human))
TEST_DESCRIPTION: GSK3β kinase assay (Ser/Thr 09 peptide Z-lyte FRET)
CONDITION_DESCRIPTION: 46 μM ATP, 1 h room temperature
MEASUREMENT_NAME: EC50

get_value(item= Cn1ncc(-c2ccc3cnc(NC(=O)C4CCOCC4)cc3c2)c1CO [Compound 984] , readout=EC50) returns 236 nM

Just so you know, measured EC50 for CN1CCC(N2CCC(C(=O)Nc3cc4cc(-c5cnco5)ccc4cn3)CC2)CC1 [Compound 978] came out at 220 nM

Next compound, EC50 to be filled in.
Form: compound = Cn1cc(-c2ccc3cnc(NC(=O)CN4CCC(F)CC4)cc3c2)cn1 [Compound 116] ; EC50 = 24 nM

* * *

TEST_TARGET: recombinant GSK3β kinase (Homo sapiens (Human), UniProt P49841)
Sequence (P49841 whole entry): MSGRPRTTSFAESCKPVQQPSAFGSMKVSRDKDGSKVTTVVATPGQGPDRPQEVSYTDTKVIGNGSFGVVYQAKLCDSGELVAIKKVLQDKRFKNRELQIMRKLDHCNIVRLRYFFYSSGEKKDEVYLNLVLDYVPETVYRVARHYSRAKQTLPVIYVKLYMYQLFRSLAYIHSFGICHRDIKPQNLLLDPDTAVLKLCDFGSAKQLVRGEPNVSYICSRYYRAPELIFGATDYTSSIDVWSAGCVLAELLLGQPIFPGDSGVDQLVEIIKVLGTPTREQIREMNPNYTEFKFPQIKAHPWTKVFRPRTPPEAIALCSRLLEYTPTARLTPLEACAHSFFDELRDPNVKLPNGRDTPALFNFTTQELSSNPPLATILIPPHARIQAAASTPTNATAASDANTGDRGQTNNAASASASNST
TEST_DESCRIPTION: GSK3β kinase assay (Ser/Thr 09 peptide Z-lyte FRET)
CONDITION_DESCRIPTION: 46 μM ATP, 1 h room temperature
Some molecules, each annotated with its measured log10 of EC50.
Record value = log10 of EC50 given in nM.

log10 of EC50 recorded for this molecule, CN1CCN(CC(=O)Nc2cc3cc(-c4cnn(C)c4)ccc3cn2)CC1 , is 1.90

Notebook: Cc1nnc(-c2cc(F)c3cnc(NC(=O)CN4CCOCC4)cc3c2)s1 , log10 of EC50 read as 0.78

Lookup result for Cn1cc(-c2ccc3cnc(NC(=O)C4CCNCC4)cc3c2)nn1 ; measured log10 of EC50: 0.85

The reported value for Cn1ncc(-c2ccc3cnc(NC(=O)C4CCC(F)(F)CC4)cc3c2)c1CN1CCCC1 in terms of log10 of EC50 is 1.64

The value of log10 of EC50 measured for the molecule O=C(Nc1cc2cc(-c3cnco3)ccc2cn1)C1CCN(C(=O)CN2CCCC2)CC1 turned out to be 2.39

***
// log10 of EC50 lookup, molecule = Cn1cc(-c2ccc3cnc(NC(=O)C4C(C)(C)C4(C)C)cc3c2)nn1 , result: 2.02

Summary for this molecule, Cn1cc(-c2ccc3cnc(NC(=O)CCN4CCOCC4)cc3c2)cn1 : log10 of EC50 is 1.43

What the record says about Cn1cc(-c2ccc3cnc(NC(=O)CN4CCC(O)CC4)cc3c2)cn1 : log10 of EC50 is 1.85

Entry Cn1cc(-c2ccc3cnc(NC(=O)CN4CCCC4)cc3c2)nn1 , log10 of EC50 reported as 0.85

# molecule Cn1cc(-c2ccc3cnc(NC(=O)CN4CC[C@H](F)C4)cc3c2)cn1 ; its log10 of EC50 = 1.11

# molecule Cc1nnc(-c2ccc3cnc(NC(=O)CN4CCCOCC4)cc3c2)s1 ; its log10 of EC50 = 1.08

Quick note, log10 of EC50 for CC(C)CN1CCC[C@@H](C(=O)Nc2cc3cc(-c4cnn5c4CN(CCF)CC5)ccc3cn2)C1 landed at 2.63

log10 of EC50 for Cc1ncc(-c2ccc3cnc(NC(=O)CCN4CCOCC4)cc3c2)o1 is 1.56

For Cn1cc(-c2ccc3cnc(NC(=O)CN4CC[C@@H](F)C4)cc3c2)cn1 the molecule record lists log10 of EC50 as 1.40

Lab note: measured log10 of EC50 of O=C(CN1CCCC1)Nc1cc2cc(-c3cn[nH]c3C(F)(F)F)ccc2cn1 was 3.99

Record CN1CCN(CC(=O)Nc2cc3cc(-c4cncs4)ccc3cn2)CC1 . Reported log10 of EC50: 2.20

Kindly note the recorded log10 of EC50 for Cn1cncc1-c1ccc2cnc(NC(=O)CN3CCCCC3)cc2c1 , which is 2.06

Record Cn1ncc(-c2ccc3cnc(NC(=O)C4CC5(C4)CN(CCF)C5)cc3c2)c1CN1CCCCC1 , field log10 of EC50: 0.70

* * *

Property: EC50; scope: individual compounds
TEST_TARGET: recombinant GSK3β kinase (Homo sapiens (Human), UniProt P49841)
TEST_DESCRIPTION: GSK3β kinase assay (Ser/Thr 09 peptide Z-lyte FRET);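 note: kinase activity read as coumarin to fluorescein emission ratio, 11-point threefold dilutions from 10 µM to 0.0003 µM in duplicate, unphosphorylated and phosphorylated peptide as 0% and 100% controls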
CONDITION_DESCRIPTION: 46 μM ATP, 1 h room temperature
# number only, unit nM dropped from output

See these solved cases before continuing.
Item: Cn1cc(-c2ccc3cnc(NC(=O)C4CCN(Cc5ccccn5)CC4)cc3c2)cn1 [Compound 359] | EC50: 82

So for CO[C@H]1CC[C@H](C(=O)Nc2cc3cc(-c4nnc(C)s4)ccc3cn2)CC1 [Compound 885] , the logged EC50 turned out to be 46

Continuing:
// recorded EC50 for CO[C@H]1CC[C@H](C(=O)Nc2cc3cc(-c4cnn(C)c4)ccc3cn2)CC1 [Compound 4] : 80

Measured EC50, Cn1cc(-c2ccc3cnc(NC(=O)[C@H]4CC[C@H](N(C)C)CC4)cc3c2)cn1 [Compound 327] : 66

* * *

System: Wnt pathway (Sp5-Luc reporter, TCF/LEF binding sites) in SW480 colon carcinoma cells
TEST_DESCRIPTION: Screening assay for Wnt activity: Sp5-Luc reporter gene assay;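 note: firefly luciferase luminescence read in stably transduced SW480 cells carrying the Sp5 promoter reporter with eight TCF/LEF sites, compounds given in 0.1% DMSO final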
Assay type: cell-based, human
CONDITION_DESCRIPTION: Homo sapiens; Sp5-Luc reporter, SW480 cells, 36 to 48 hours
Entries and their log10(EC50) values follow.
Please be aware that the numbers have been log10-transformed from EC50 in nM.

Recorded results for 5 molecules are shown here.
Input O=C(Nc1cc2cc(-c3cnco3)ccc2cn1)C1CCN(CCC(F)(F)F)CC1 . Output log10(EC50): 3.26

log10(EC50) recorded for this molecule, Cn1cc(-c2ccc3cnc(NC(=O)C4CC4)cc3c2)nn1 , is 2.28

// recorded log10(EC50) for CN1CCC(C(=O)Nc2cc3cc(-c4cnn(C)c4)ccc3cn2)CC1 : 2.69

Recorded result, Cn1cc(-c2ccc3cnc(NC(=O)[C@H]4CC[C@H](N(C)C)CC4)cc3c2)nn1 , log10(EC50): 2.60

The measured log10(EC50) associated with Cn1cc(-c2cc3cc(NC(=O)C4CCNCC4)ncc3cc2F)cn1 reads 2.87

---
Please fill in: log10(EC50) reported for Cn1cc(-c2ccc3cnc(NC(=O)C4CCN(CC(F)F)CC4)cc3c2)cn1 = 3.28

get_value(item= CC(C(=O)Nc1cc2cc(-c3cnn(C)c3)ccc2cn1)N1CCCC1 (stereo not drawn) , readout=log10(EC50)) returns 3.08

Reported log10(EC50) of CN1CCCN(CC(=O)Nc2cc3cc(-c4cnn(C)c4)ccc3cn2)CC1 : 3.43

molecule CN1CC2(CC(C(=O)Nc3cc4cc(-c5cnn(C)c5)ccc4cn3)C2)C1 , log10(EC50) observed: 2.16

The reported value for CC(C)OCCC(=O)Nc1cc2cc(-c3cncn3C)ccc2cn1 in terms of log10(EC50) is 3.05

Entry under test: Cc1ncc(-c2ccc3cnc(NC(=O)CN4C[C@H]5C[C@@H]4CO5)cc3c2)s1 . Its log10(EC50) was 3.64

* * *

System: SW480 colon carcinoma cells
TEST_DESCRIPTION: Cell viability assay (CellTiter-Glo)
Type: cell-based, human
CONDITION_DESCRIPTION: Homo sapiens, SW480; read-out: percent inhibition at 10 μM
MEASUREMENT_NAME: inhibition at 10 µM (%)
Kindly answer with a numeric value in %, unit omitted.

Examples from the recorded data:
Measured inhibition at 10 µM of CCN(CC)c1ncc(-c2ccc3cnc(NC(=O)CN4CCC(F)CC4)cc3c2)s1 [Compound 1047] : 41.7

Form field inhibition at 10 µM, entry C[C@@H](C(=O)Nc1cc2cc(-c3cnn(C)c3)ccc2cn1)N1CCOCC1 [Compound 348] : 22.4

GET /value?item= Cc1ncc(-c2ccc3cnc(NC(=O)CCN4CCOCC4)cc3c2)o1 [Compound 1068] &field=inhibition at 10 µM returns 46

Cn1cncc1-c1ccc2cnc(NC(=O)C3(F)CCCCC3)cc2c1 [Compound 527] has a reported inhibition at 10 µM of 43.6

Looking up CC(C)CN1CCC(F)(C(=O)Nc2cc3cc(-n4nccn4)ccc3cn2)CC1 [Compound 1073] , I found its inhibition at 10 µM recorded as 8.5

Further cases:
inhibition at 10 µM measured on [2H]C1([2H])OC([2H])([2H])C([2H])([2H])N(CC(=O)Nc2cc3cc(-c4nnc(C)s4)ccc3cn2)C1([2H])[2H] [Compound 1052] = 40.7

Lookup result for [2H]C([2H])(C(=O)Nc1cc2cc(-c3nnc(C)s3)ccc2cn1)N1CCOCC1 [Compound 1051] ; measured inhibition at 10 µM: 22.5

inhibition at 10 µM recorded for this compound, Cc1nnc(-c2ccc3cnc(NC(=O)CN4CC5CCC(C4)O5)cc3c2)s1 [Compound 1029] , is 34.6

* * *

TEST_TARGET: recombinant DYRK1A kinase (Homo sapiens (Human), UniProt Q13627)
TEST_DESCRIPTION: DYRK1A kinase assay (Ser/Thr 18 peptide Z-lyte FRET);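 note: Read-out is the coumarin to fluorescein emission ratio, referenced to unphosphorylated (0%) and phosphorylated (100%) Ser/Thr 18 peptide controls, values from dose-response curves by non-linear regression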
CONDITION_DESCRIPTION: 30 μM ATP, 1 h room temperature
MEASUREMENT_NAME: EC50 (nM)
A number alone suffices; assume nM.

Input Cn1cc(-c2ccc3cnc(NC(=O)C(C)(C)F)cc3c2)nn1 . Output EC50: 12.7

// recorded EC50 for CN1CCN(CC(=O)Nc2cc3cc(-c4cnn(C)c4)ccc3cn2)CC1 : 9.6

The measured EC50 associated with CC(C)N1CCC(C(=O)Nc2cc3cc(-c4cnn(C)c4)ccc3cn2)CC1 reads 2.6

get_value(item= Cn1cc(-c2ccc3cnc(NC(=O)CN4CCCCC4)cc3c2)nn1 , readout=EC50) returns 5.1

The compound Cc1ncc(-c2ccc3cnc(NC(=O)C4CC4)cc3c2)n1C showed EC50 equal to 2.9

New cases:
Entry Cn1cc(-c2ccc3cnc(NC(=O)C4CC5(CCN(CCF)CC5)C4)cc3c2)cn1 — recorded EC50 = 2

Lab note: CN1CCC(n2cc(-c3ccc4cnc(NC(=O)C5CCCCC5)cc4c3)cn2)CC1 gave EC50 of 50

Kindly note the recorded EC50 for Cn1ncc(-c2ccc3cnc(NC(=O)C4CCC(F)(F)CC4)cc3c2)c1CN1CCCC1 , which is 6.7

Per the record, CC1CCN(CC(=O)Nc2cc3cc(-c4cnn(C)c4CN4CCCCC4)ccc3cn2)CC1 has EC50 of 5010
